The reported measurements were obtained from paper PMC12363564.

- target desc: T1, 6xHis-tagged hPTPRS Fn9 (residues 1117-1270) (human, UniProt Q13332 1117-1270)
- T1 chain: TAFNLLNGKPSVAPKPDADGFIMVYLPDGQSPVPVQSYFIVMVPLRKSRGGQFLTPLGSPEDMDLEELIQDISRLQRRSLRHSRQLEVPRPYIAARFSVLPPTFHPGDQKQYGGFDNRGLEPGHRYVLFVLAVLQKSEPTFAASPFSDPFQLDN
- assay info: BLI
Reported Kd values follow for various binders
Express your answer in nM, writing the number without its unit.

binder	recorded result
13G5 (mouse monoclonal antibody, IgG2b/κ) (antibody, V domains shown, VH of 13G5; constant region of the mouse IgG2b heavy chain; VL of 13G5; constant region of the mouse κ light chain; IgG2b/κ; also called anti-PTPRS Ab 13G5; source: production contracted to Viva Biotech) VH: EVKLVESGGGLVQPGGSLKLSCATSGFTFSDYYMYWVRQTPEKRLEWVAYISNGGGSTYYPDTVKGRFTISRDNAKNTLYLQMSRLKSEDTAMYYCARHVYYGRNYAMDYWGQGTSVTVSS VL: DIQMTQTTSSLSASLGDRVTISCRASQDISNYLNWYQQKPDGTVKLLIYYTSRLHSGVPSRFSGSGSGTDYSLTISNLEQEDIATYFCQQGNTLPYTFGGGTKLEIK	6.03
22H8^HL-scFv-Fc (VH-linker-VL scFv of 22H8 fused to human IgG1 Fc) (scFv, V domains shown, as the VH of m3 (22H8); linker between VH and VL; as the VL of m3 (22H8); ORF synthesized by Genscript and subcloned into pHLsec as a C-terminal hFc fusion; also called 22H8-Fc HL; source: HEK293T, transiently transfected, supernatant; purified (Protein A); not shown: Fc (human IgG1), C-terminal, kept) VH: QVQLQQSGAELARPGASVKLSCKASGYTFTSYWMQWVKQRPGQGLEWIGAIYPGDGDTRYTQKFKGKATLTADKSSSTAYMQLSSLASEDSAVYYCARRIYYGYYYAMDYWGQGTSVTVSS VL: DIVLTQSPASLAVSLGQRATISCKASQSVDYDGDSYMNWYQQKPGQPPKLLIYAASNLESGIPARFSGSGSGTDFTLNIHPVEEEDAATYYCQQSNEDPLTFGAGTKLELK	2.65

# context switch: different binder, same Kd
Request: Param item = 13G5^HL-scFv-Fc (VH-linker-VL scFv of 13G5 fused to human IgG1 Fc) (scFv, V domains shown) VH: EVKLVESGGGLVQPGGSLKLSCATSGFTFSDYYMYWVRQTPEKRLEWVAYISNGGGSTYYPDTVKGRFTISRDNAKNTLYLQMSRLKSEDTAMYYCARHVYYGRNYAMDYWGQGTSVTVSS VL: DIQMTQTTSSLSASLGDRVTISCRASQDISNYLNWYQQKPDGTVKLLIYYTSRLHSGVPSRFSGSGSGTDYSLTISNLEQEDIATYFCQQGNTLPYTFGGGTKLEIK ; retrieve measured Kd.
Result: 0.28
